Where do the numbers come from? From patent US20120269817A1.

In this section we review reported dPT in hemoA plasma values for a set of binders.
# target.under.test: T1, human tissue factor pathway inhibitor (TFPI) (human, UniProt P10646 29-304, limits assumed); note: test concentration or dose not given here
# T1 sequence (looked up): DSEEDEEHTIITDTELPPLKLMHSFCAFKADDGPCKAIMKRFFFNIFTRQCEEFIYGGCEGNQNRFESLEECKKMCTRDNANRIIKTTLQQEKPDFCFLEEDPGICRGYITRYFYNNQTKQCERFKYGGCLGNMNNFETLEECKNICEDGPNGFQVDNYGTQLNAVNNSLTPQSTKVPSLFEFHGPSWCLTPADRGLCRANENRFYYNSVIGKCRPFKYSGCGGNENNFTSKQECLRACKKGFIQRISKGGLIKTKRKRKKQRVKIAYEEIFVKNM
# test.description: cell-based or functional assay
State just the number; it will be interpreted in s.

binder | dPT in hemoA plasma [s]
TP-2B3 Fab (Fab, V domains shown, Human Fab from HuCal Gold, expressed in E. coli TG1) VH: QVQLQQSGPGLVKPSQTLSLTCAISGDSVSSNSAAWGWIRQSPGRGLEWLGMIYYRSKWYNSYAVSVKSRITINPDTSKNQFSLQLNSVTPEDTAVYYCARTMSKYGGPGMDVWGQGTLVTVSS VL: DIVLTQSPATLSLSPGERATLSCRASQNIGSNYLAWYQQKPGQAPRLLIYGASTRATGVPARFNGSGSGTDFTLTISSLEPEDFAVYYCQQLNSIPVTFGQGTKVEIKR | 74

Alright, here's another binder for you.
// query Quick one: dPT in hemoA plasma of TP-4E8 Fab (Fab, V domains shown, Human Fab from HuCal Gold, expressed in E. coli TG1) VH: QVQLVESGGGLVQPGGSLRLSCAASGFTFNDYAMSWVRQAPGKGLEWVSLIESVSSSTYYADSVKGRFTISRDNSKNTLYLQMNSLRAEDTAVYYCARTIGVLWDDVWGQGTLVTVSS VL: DIELTQPPSVSVAPGQTARISCSGDALGSKYVSWYQQKPGQAPVLVIYGDNKRPSGIPERFSGSNSGNTATLTISGTQAEDEADYYCQSYTYSLNQVFGGGTKLTVLG ?
// result 71.9
